Just for reference, ChEMBL document CHEMBL2034927 is where these values come from.

assayRemarks: Selectivity index, ratio of CC50 for human MT4 cells to EC50 for HIV1 RES056 harboring reverse transcriptase K103N/Y181C RT mutant
Type: toxicity, cell-based
details: read-out: Ratio CC50/EC50
quantityName: selectivity ratio
Give only the figure.

structureNotation: Cc1cc(C)c(Nc2nc(N)nc(NC3CCN(Cc4ccc(S(C)(=O)=O)cc4)CC3)n2)c(C)c1
selectivity ratio: 1

structureNotation: CNc1nc(Nc2c(C)cc(C)cc2C)nc(NC2CCN(Cc3ccncc3)CC2)n1
selectivity ratio: 47

structureNotation: COc1nc(Nc2c(C)cc(C)cc2C)nc(NC2CCN(Cc3ccc(S(N)(=O)=O)cc3)CC2)n1
selectivity ratio: 21

structureNotation: Cc1cc(C)c(Nc2nc(N)nc(NC3CCN(Cc4ccc(C(N)=O)cc4)CC3)n2)c(C)c1
selectivity ratio: 22

Moving on to another compound below.
QUERY: Query selectivity ratio for Cc1cc(C)c(Nc2nc(N)nc(NC3CCN(Cc4ccncc4)CC3)n2)c(C)c1
RESULT: 21

====

assayRemarks: Cytotoxicity against human MT4 cells after 5 days by MTT assay
Assay type: cell-based
Sorting guide: entries reporting CC50 at 120 h beneath 30 µM go in the MET pile, the rest go in the NOT MET pile.

// known answers, use as guide
compound: CNc1nc(Nc2c(C)cc(C)cc2C)nc(NC2CCN(Cc3ccc(S(N)(=O)=O)cc3)CC2)n1
labelValue: MET
//
compound: Cc1cc(C)c(Nc2nc(N)nc(NC3CCN(Cc4ccc(C(N)=O)cc4)CC3)n2)c(C)c1
labelValue: NOT MET

QUERY: # check: CC50 at 120 h < 30 µM for Nc1ccn([C@H]2CC[C@@H](CO)O2)c(=O)n1
RESULT: NOT MET

QUERY: # check: CC50 at 120 h < 30 µM for CC(C)Nc1cccnc1N1CCN(C(=O)c2cc3cc(NS(C)(=O)=O)ccc3[nH]2)CC1.CS(=O)(=O)O [DELAVIRDINE MESYLATE]
RESULT: NOT MET

QUERY: # check: CC50 at 120 h < 30 µM for Cc1cc(C)c(Nc2nc(N)nc(NC3CCN(Cc4ccc(C#N)cc4)CC3)n2)c(C)c1
RESULT: MET

QUERY: # check: CC50 at 120 h < 30 µM for COc1nc(Nc2c(C)cc(C)cc2C)nc(NC2CCN(Cc3ccc(S(N)(=O)=O)cc3)CC2)n1
RESULT: MET

====

Tested on: Human immunodeficiency virus 1
assayRemarks: Fold resistance, ratio of EC50 for HIV1 RES056 harboring reverse transcriptase K103N/Y181C RT mutant to EC50 for wild type HIV1 3B
Type: functional
quantityName: Ratio EC50
Give only the figure.

structureNotation: Cc1cc(C)c(Nc2nc(N)nc(NC3CCN(Cc4ccc(C(N)=O)cc4)CC3)n2)c(C)c1
observedMeasurement: 162.8
//
structureNotation: CNc1nc(Nc2c(C)cc(C)cc2C)nc(NC2CCN(Cc3ccc(S(C)(=O)=O)cc3)CC2)n1
observedMeasurement: 549.8
//
structureNotation: COc1nc(Nc2c(C)cc(C)cc2C)nc(NC2CCN(Cc3ccc(S(N)(=O)=O)cc3)CC2)n1
observedMeasurement: 88.2
//
structureNotation: Cc1cc(C)c(Nc2nc(N)nc(NC3CCN(Cc4ccc(S(N)(=O)=O)cc4)CC3)n2)c(C)c1
observedMeasurement: 105.7

Moving on to another compound below.
QUERY: Query Ratio EC50 for Cc1cc(C)c(Nc2nc(N)nc(NC3CCN(Cc4ccccc4)CC3)n2)c(C)c1
RESULT: 481.3

====

assayRemarks: Selectivity index, ratio of CC50 for human MT4 cells to EC50 for wild type HIV1 3B
Format: toxicity, cell-based
details: read-out: Ratio CC50/EC50
Recorded selectivity ratio values for a group of molecules are listed next.
Give only the figure.

structureNotation: CCOC(=O)c1ccc(CN2CCC(Nc3nc(Nc4c(C)cc(C)cc4C)nc(OC)n3)CC2)cc1
selectivity ratio: 577

QUERY: Query selectivity ratio for CNc1nc(Nc2c(C)cc(C)cc2C)nc(NC2CCN(Cc3ccc(C(N)=O)cc3)CC2)n1
RESULT: 5940

QUERY: Query selectivity ratio for Cc1cc(C)c(Nc2nc(N)nc(NC3CCN(Cc4ccc(C(N)=O)cc4)CC3)n2)c(C)c1
RESULT: 3640

QUERY: Query selectivity ratio for Cc1cc(C)c(Nc2nc(N)nc(NC3CCN(Cc4ccncc4)CC3)n2)c(C)c1
RESULT: 4110

QUERY: Query selectivity ratio for Cc1cc(C)c(Nc2nc(N)nc(NC3CCN(Cc4ccc(S(N)(=O)=O)cc4)CC3)n2)c(C)c1
RESULT: 3450

QUERY: Query selectivity ratio for Cc1cc(C)c(Nc2nc(N)nc(NC3CCN(Cc4ccc(C#N)cc4)CC3)n2)c(C)c1
RESULT: 576

QUERY: Query selectivity ratio for CNc1nc(Nc2c(C)cc(C)cc2C)nc(NC2CCN(Cc3ccc(S(C)(=O)=O)cc3)CC2)n1
RESULT: 1590

====

assayRemarks: Selectivity index, ratio of CC50 for human MT4 cells to EC50 for wild type HIV1 3B
Type: toxicity, cell-based
details: read-out: Ratio CC50/EC50
quantityName: selectivity ratio
Give only the figure.

structureNotation: CCOC(=O)c1ccc(CN2CCC(Nc3nc(N)nc(Nc4c(C)cc(C)cc4C)n3)CC2)cc1
selectivity ratio: 512
//
structureNotation: COc1nc(Nc2c(C)cc(C)cc2C)nc(NC2CCN(Cc3ccc(S(C)(=O)=O)cc3)CC2)n1
selectivity ratio: 1130

Moving on to another molecule below.
QUERY: Query selectivity ratio for CNc1nc(Nc2c(C)cc(C)cc2C)nc(NC2CCN(Cc3ccncc3)CC2)n1
RESULT: 3560

====

Test system: Human immunodeficiency virus 1
assayRemarks: Fold resistance, ratio of EC50 for HIV1 RES056 harboring reverse transcriptase K103N/Y181C RT mutant to EC50 for wild type HIV1 3B
Type: functional
Recorded Ratio EC50 values for a group of compounds are listed next.
Give only the figure.

structureNotation: O=C1Nc2ccc(Cl)cc2[C@@](C#CC2CC2)(C(F)(F)F)O1
studyTarget: Human immunodeficiency virus 1
observedMeasurement: 83.6

Moving on to another compound below.
QUERY: Query Ratio EC50 for CNc1nc(Nc2c(C)cc(C)cc2C)nc(NC2CCN(Cc3ccc(C(N)=O)cc3)CC2)n1
RESULT: 121.6

====

Recorded pEC50 values for a group of molecules are listed next.
Tested on: Human immunodeficiency virus 1
assayRemarks: Antiviral activity against HIV1 RES056 harboring reverse transcriptase K103N/Y181C mutant infected in human MT4 cells assessed as inhibition of virus-induced cytopathic effect after 5 days by MTT assay
Assay type: functional, organism-based
details: Human immunodeficiency virus 1, RES056, MT4, 120 h
Scale: pEC50 equals -log10([C]), with [C] in mol/L.

QUERY: Tell me pEC50 of CNc1nc(Nc2c(C)cc(C)cc2C)nc(NC2CCN(Cc3ccncc3)CC2)n1 when tested on Human immunodeficiency virus 1.
RESULT: 6.26

QUERY: Tell me pEC50 of Cc1cc(C)c(Nc2nc(N)nc(NC3CCN(Cc4ccc(C(N)=O)cc4)CC3)n2)c(C)c1 when tested on Human immunodeficiency virus 1.
RESULT: 5.48

QUERY: Tell me pEC50 of Cc1cc(C)c(Nc2nc(N)nc(NC3CCN(Cc4ccccc4)CC3)n2)c(C)c1 when tested on Human immunodeficiency virus 1.
RESULT: 5.31

QUERY: Tell me pEC50 of Cc1cc(C)c(Nc2nc(N)nc(NC3CCN(Cc4ccc(S(C)(=O)=O)cc4)CC3)n2)c(C)c1 when tested on Human immunodeficiency virus 1.
RESULT: 5.31

QUERY: Tell me pEC50 of COc1nc(Nc2c(C)cc(C)cc2C)nc(NC2CCN(Cc3ccncc3)CC2)n1 when tested on Human immunodeficiency virus 1.
RESULT: 5.83

QUERY: Tell me pEC50 of O=C1Nc2ccc(Cl)cc2[C@@](C#CC2CC2)(C(F)(F)F)O1 when tested on Human immunodeficiency virus 1.
RESULT: 6.26

QUERY: Tell me pEC50 of COc1nc(Nc2c(C)cc(C)cc2C)nc(NC2CCN(Cc3ccc(C(N)=O)cc3)CC2)n1 when tested on Human immunodeficiency virus 1.
RESULT: 5.95

QUERY: Tell me pEC50 of Cc1cc(C)c(Nc2nc(N)nc(NC3CCN(Cc4ccc(S(N)(=O)=O)cc4)CC3)n2)c(C)c1 when tested on Human immunodeficiency virus 1.
RESULT: 6.21

====

assayRemarks: Selectivity index, ratio of CC50 for human MT4 cells to EC50 for HIV1 RES056 harboring reverse transcriptase K103N/Y181C RT mutant
Type: toxicity, cell-based
details: read-out: Ratio CC50/EC50
Recorded selectivity ratio values for a group of compounds are listed next.

Some solved entries appear below for comparison.
compound: Cc1cn([C@H]2C[C@H](N=[N+]=[N-])[C@@H](CO)O2)c(=O)[nH]c1=O
selectivity ratio: ≥ 4400
--
compound: COc1nc(Nc2c(C)cc(C)cc2C)nc(NC2CCN(Cc3ccc(S(C)(=O)=O)cc3)CC2)n1
selectivity ratio: ≤ 8
--
compound: CCOC(=O)c1ccc(CN2CCC(Nc3nc(Nc4c(C)cc(C)cc4C)nc(OC)n3)CC2)cc1
selectivity ratio: < 1

Moving on to another compound below.
QUERY: Query selectivity ratio for CC(C)Nc1cccnc1N1CCN(C(=O)c2cc3cc(NS(C)(=O)=O)ccc3[nH]2)CC1.CS(=O)(=O)O [DELAVIRDINE MESYLATE]
RESULT: ≥ 1
